In this section we review reported pIC50 values for a set of molecules.
- System: A2780cisR
- Assay notes: The compound was evaluated for the cytotoxicity against human A2780cisR (ovarian) tumor cell lines.
- Assay type: functional, cell-based
- Condition notes: Homo sapiens, A2780cisR
pIC50: −log10 of the molar value.

Task: Reported pIC50 for C[C@@]1([C@H](OC(=O)c2ccccc2)C(N)=O)CO1 : what is it?
Result: < 4.60

Task: # get_value(readout='pIC50', item= C[C@@]1([C@H](OC(=O)c2cnc3ccccc3n2)C(N)=O)CO1 )
Result: < 4.60

Task: Given the entry CC1([C@H](OC(=O)c2cccc3ccccc23)C(N)=O)CC1 , report its measured pIC50.
Result: < 4.60
